System: RARg homodimer (NR concentration 270 nM)
ASSAY_PROCEDURE: PBM binding z-score (relative to random genomic background probes); higher = stronger binding; sequences stand for … in GC…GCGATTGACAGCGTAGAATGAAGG
Class TRUE: PBM binding z-score at least 1. Class FALSE: PBM binding z-score below 1.

INPUT_SEQUENCE	GROUP_LABEL
TCTTGTAGATCAAGCAGGTTAGGAAAGCCTGAGT	FALSE
CCTAATGGGCCAAAAAGGTCATTGATGCCGATAA	TRUE
CGAACTAGGTCATTGACAGGACAGTCAATAGTAA	TRUE
TCTTGTAGAGCAATAGAGGTTAAGAAAGTGCGCT	FALSE
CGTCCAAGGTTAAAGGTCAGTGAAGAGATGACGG	TRUE
TCTAGCAGGCCAGAGAGTCACTCAAGAGGTACGG	FALSE
GCTGATAGGTCAACTGATGGTCAGCTAAAGCTCG	TRUE
CGAACTAGGTCATCCAGGACAGCGAATACATTGA	TRUE
AAAACAGGGTCACTAGGCCAGAGTAGGTACGAAT	TRUE
TCTTGTAGATCAAAGGGTAAGAAAGCCGAAGCCT	FALSE
